Provenance of the data: ChEMBL document CHEMBL1949521

test: Clearance in dog at 1 mg/kg, iv; type: ADME, organism-based, Canis lupus familiaris; set-up: dose 1 mg/kg, route intravenous; details: in vivo
outcome_measure: clearance (mL/min/kg)
Reply with just the number (in mL/min/kg).

Which value of clearance has been reported for O[C@H]1CC[C@H](Nc2ncc3nc(Nc4c(F)cc(F)cc4F)n([C@H]4CCOC4)c3n2)CC1 in the records?
3.4

Also, CNC(=O)[C@H]1CC[C@H](Nc2ncc3nc(Nc4c(F)cc(F)cc4F)n([C@H]4CCOC4)c3n2)CC1 please.
24

====

assay: Solubility in simulated intestinal fluid; format: physicochemical
outcome_measure: solubility (µg/mL)
Reply with just the number (in µg/mL).

Which value of solubility has been reported for O[C@H]1CC[C@H](Nc2ncc3nc(Nc4c(F)cc(F)cc4F)n([C@H]4CCOC4)c3n2)CC1 in the records?
780

====

experiment: Mean residence time in dog at 1 mg/kg, iv; assay type: ADME, organism-based, Canis lupus familiaris; set-up: dose 1 mg/kg, route intravenous; details: in vivo
Attribute: MRT
Reply with just the number (in h).

CNC(=O)[C@H]1CC[C@H](Nc2ncc3nc(Nc4c(F)cc(F)cc4F)n([C@H]4CCOC4)c3n2)CC1; 1

Could you now consider this next molecule?
Which value of MRT has been reported for O[C@H]1CC[C@H](Nc2ncc3nc(Nc4c(F)cc(F)cc4F)n([C@H]4CCOC4)c3n2)CC1 in the records?
7.3

====

Attribute: Tmax
test: Tmax in rat at 10 mg/kg, po; assay type: ADME, organism-based; design: dose 10 mg/kg, route oral; conditions: in vivo
Reply with just the number (in h).

CNC(=O)[C@H]1CC[C@H](Nc2ncc3nc(Nc4c(F)cc(F)cc4F)n([C@H]4CCOC4)c3n2)CC1; 0.7

Could you now consider this next molecule?
Which value of Tmax has been reported for O[C@H]1CC[C@H](Nc2ncc3nc(Nc4c(F)cc(F)cc4F)n([C@H]4CCOC4)c3n2)CC1 in the records?
1.5

====

assay: Oral bioavailability in dog at 10 mg/kg; type: ADME, organism-based, Canis lupus familiaris; conditions: in vivo
Attribute: bioavailability
Reply with just the number (in %).

CNC(=O)[C@H]1CC[C@H](Nc2ncc3nc(Nc4c(F)cc(F)cc4F)n([C@H]4CCOC4)c3n2)CC1; 24

Could you now consider this next compound?
Which value of bioavailability has been reported for CC(C)Nc1ncc2nc(Nc3c(F)cc(F)cc3F)n([C@H]3CC[C@@H](C(=O)NC4CC4)CC3)c2n1 in the records?
20

====

target: Mitogen-activated protein kinase 10 (Homo sapiens); test: Inhibition of hexa-His-tagged JNK3 expressed in baculoviral system using GST-tagged cJun as substrate preincubated for 15 mins prior ATP addition measured after 60 mins by scintillation counting
Sequence (P53779 whole entry): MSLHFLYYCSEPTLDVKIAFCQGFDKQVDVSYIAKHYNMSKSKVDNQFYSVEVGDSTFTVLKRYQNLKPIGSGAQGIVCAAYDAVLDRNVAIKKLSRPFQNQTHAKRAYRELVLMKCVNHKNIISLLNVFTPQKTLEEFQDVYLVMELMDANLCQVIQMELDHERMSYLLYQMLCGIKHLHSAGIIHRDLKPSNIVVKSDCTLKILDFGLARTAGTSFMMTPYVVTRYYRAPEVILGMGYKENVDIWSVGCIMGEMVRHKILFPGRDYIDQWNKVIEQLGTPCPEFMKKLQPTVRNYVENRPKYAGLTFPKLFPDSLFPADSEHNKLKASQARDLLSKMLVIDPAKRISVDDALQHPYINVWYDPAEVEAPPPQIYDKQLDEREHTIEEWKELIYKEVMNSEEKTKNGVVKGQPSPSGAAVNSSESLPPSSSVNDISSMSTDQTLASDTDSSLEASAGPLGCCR
outcome_measure: IC50 (nM)
Reply with just the number (in nM).

Item: CNC(=O)[C@H]1CC[C@H](Nc2ncc3nc(Nc4c(F)cc(F)cc4F)n([C@H]4CCOC4)c3n2)CC1 Test system: Mitogen-activated protein kinase 10 (Homo sapiens) Read-out: IC50 Value: ?
7

====

assay: Volume of distribution at steady state in dog at 1 mg/kg, iv; type: ADME, organism-based, Canis lupus familiaris; design: dose 1 mg/kg, route intravenous; conditions: in vivo, read-out: Vdss
outcome_measure: Vd (L/kg)
Reply with just the number (in L/kg).

O[C@H]1CC[C@H](Nc2ncc3nc(Nc4c(F)cc(F)cc4F)n([C@H]4CCOC4)c3n2)CC1; 1.5

Which value of Vd has been reported for CNC(=O)[C@H]1CC[C@H](Nc2ncc3nc(Nc4c(F)cc(F)cc4F)n([C@H]4CCOC4)c3n2)CC1 in the records?
1.4
